- procedure.text: Selectivity ratio of Ki for human histamine H4 receptor to Ki for 5HT1D receptor
Friendly reminder: Ratio Ki below 20 is yes (1), at or above is no (0).

# example entries with known answers
{"compound": "Nc1nc2c(c(N3CCNCC3)n1)CCCCC2c1ccccc1 (stereo unspecified)", "assigned.class": "no (0)"}
{"compound": "Nc1nc2c(c(N3CCNCC3)n1)CCCc1ccc(F)cc1-2", "assigned.class": "no (0)"}
{"compound": "CNC1CN(c2nc(N)nc3c2CCCc2ccccc2-3)C1", "assigned.class": "no (0)"}

Problem: Dear reviewer, please state whether Nc1nc2c(c(N3CCNCC3)n1)CCCc1ccccc1-2 has Ratio Ki strictly beneath 20.
Solution: yes (1)

Problem: Is Ratio Ki of CN[C@@H]1CCN(c2nc(N)nc3c2CCCc2ccccc2-3)C1 strictly below 20?
Solution: no (0)

Problem: Is Ratio Ki strictly under 20 for the entry CN1CCN(c2cc(-c3ccc(C#N)cc3)nc(N)n2)CC1 ?
Solution: yes (1)

###

- procedure.text: Fractional bioavailability in rat at 10 mg/kg, iv and 10 mg/kg, po
- Type: ADME, organism-based
- condition.set: in vivo
So I've got a bunch of molecules here, and I need their bioavailability values.
Give bare numbers, in %.

Use the examples below as a reference point.
{"molecule": "Nc1nc2c(c(N3CCNCC3)n1)CCCCC2c1ccccc1 (stereo not given)", "numeric.result": 31}
{"molecule": "CN1CCN(c2cc(-c3ccc(C#N)cc3)nc(N)n2)CC1", "numeric.result": 31}
{"molecule": "Nc1nc2c(c(N3CCNCC3)n1)CCCc1ccccc1-2", "numeric.result": 37}
{"molecule": "Nc1nc2c(c(N3CCNCC3)n1)CCCc1ccc(F)cc1-2", "numeric.result": 18}

Problem: What value of measured bioavailability is listed for Nc1nc2c(c(N3CC[C@@H](N)C3)n1)CCCc1ccccc1-2 ?
Solution: 34

###

- procedure.text: Half life in mouse at 5 mg/kg, iv
- Type: ADME, organism-based
- Parameters: dose 5 mg/kg, route intravenous
- condition.set: in vivo
For each record, write down the corresponding half-life.
One number for each entry, in h.

{"compound": "Nc1nc2c(c(N3CCNCC3)n1)CCCc1ccccc1-2", "unit.tag": "h", "half-life": 4.9}
{"compound": "CN1CCN(C(=O)c2cc3cc(Cl)ccc3[nH]2)CC1 [JNJ-7777120]", "unit.tag": "h", "half-life": 0.38}
{"compound": "O=C(c1cc2cc(Cl)ccc2[nH]1)N1CCNCC1", "unit.tag": "h", "half-life": 1.63}

Let us move to another entry and its half-life.
Problem: Need half-life of Nc1nc2c(c(N3CC[C@@H](N)C3)n1)CCCc1ccccc1-2 , thanks.
Solution: 1.6

###

- target: Histamine H4 receptor (Homo sapiens, UniProt Q9H3N8)
- Sequence (Q9H3N8 whole entry): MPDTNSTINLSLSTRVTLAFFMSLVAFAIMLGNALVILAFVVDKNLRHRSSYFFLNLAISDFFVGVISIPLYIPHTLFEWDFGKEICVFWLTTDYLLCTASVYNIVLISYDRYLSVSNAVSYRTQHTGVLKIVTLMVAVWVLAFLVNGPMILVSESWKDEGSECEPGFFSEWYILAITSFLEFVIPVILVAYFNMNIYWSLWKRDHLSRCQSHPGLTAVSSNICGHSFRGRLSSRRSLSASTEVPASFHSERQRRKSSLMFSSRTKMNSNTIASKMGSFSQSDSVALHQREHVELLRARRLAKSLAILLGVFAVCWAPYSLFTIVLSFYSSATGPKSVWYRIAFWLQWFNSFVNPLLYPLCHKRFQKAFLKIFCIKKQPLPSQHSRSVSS
- procedure.text: Displacement of [3H]histamine from human histamine H4 receptor expressed in HEK293 cells
- Type: cell-based
- condition.set: read-out: Ki
Hi! Just check whether Ki is below 10 nM. Below gives 1.0, equal or above gives 0.0.

{"compound": "CNC1CN(c2nc(N)nc3c2CCCc2ccccc2-3)C1", "assigned.class": 0.0}
{"compound": "Nc1nc2c(c(N3CCNCC3)n1)CCCCC2c1ccccc1 (stereo not given)", "assigned.class": 0.0}
{"compound": "Nc1nc2c(c(N3CCNCC3)n1)CCCc1ccc(F)cc1-2", "assigned.class": 1.0}

Problem: # strict comparison: is reported Ki < 10 nM? input = Nc1nc2c(c(N3CCNCC3)n1)CCCc1ccccc1-2
Solution: 0.0

Problem: Lab note: Ki threshold 10 nM. Does this compound come in strictly under it? CN[C@@H]1CCN(c2nc(N)nc3c2CCCc2ccccc2-3)C1
Solution: 1.0
